- Test system: Zika virus NS2B-NS3 protease (unlinked complex)
- assay text: Primary screen GU Rhodamine qHTS for Zika virus inhibitors: Unlinked NS2B-NS3 protease assay (AID 1347159); further: nearly all actives have a fitted effect of over 60% in size
- settings: Recombinant ZIKV NS2B-NS3 protease, Rhodamine110 substrate fluorescence; series mostly up to 107 µM
Results filed as inconclusive are left out. Calls of active or inactive are those of the source. The call rests on the fitted dose curve; in most records, active means well fitted inhibition curve with a large enough effect; inconclusive means small, poorly fitted or top-dose-only effect; inactive means no such curve, though single readings can be large or run the other way.
API: response.call in Y (active), N (inactive)

Observe how each entry below is paired with its result.
Req: So what was the verdict on `O=C(C[C@@H]1C(C(=O)O)=CO[C@@H](O[C@@H]2O[C@H](CO)[C@@H](O)[C@H](O)[C@H]2O)/C1=C\CO)OCCc1ccc(O)cc1` in this test?
Resp: N

Req: So what was the verdict on `CC(C)c1c(NC(=O)Nc2ccc(Cl)cc2)c(=O)n(-c2ccccc2)n1C` in this test?
Resp: N

Req: So what was the verdict on CC1CC=C2C1CC1(O)C(=O)CC2(C)C1(C)CO (centres undefined) in this test?
Resp: Y

---
Req: So what was the verdict on CC1=CC23[C@H](C=C(C(=O)O)[C@@H]2COC(=O)[C@]3(O)CO)[C@@H]1C (some centres undefined) in this test?
Resp: N

Req: So what was the verdict on `C[C@H](/C=C/[C@@]1(O)[C@H](C)CC(=O)CC1(C)C)O[C@@H]1O[C@H](CO[C@@H]2OC[C@@H](O)[C@H](O)[C@H]2O)[C@@H](O)[C@H](O)[C@H]1O` in this test?
Resp: N

Req: So what was the verdict on `C[C@@H]1O[C@@H](O[C@H]2[C@@H]3C=CO[C@@H](O[C@@H]4O[C@H](CO)[C@@H](O)[C@H](O)[C@H]4O)[C@@H]3[C@@]3(CO)O[C@@H]23)[C@H](O)[C@H](O)[C@H]1OC(=O)/C=C/c1ccc(O)cc1` in this test?
Resp: N

Req: So what was the verdict on CC(C)=CCC[C@](C)(O[C@@H]1O[C@H](CO)[C@@H](O)[C@H](O)[C@H]1O)[C@H]1CC[C@]2(C)[C@@H]1[C@H](O)CC1[C@@]3(C)CC[C@H](O)C(C)(C)C3[C@@H](O[C@@H]3O[C@H](CO)[C@@H](O)[C@H](O)[C@H]3O[C@@H]3O[C@@H](C)[C@H](O)[C@@H](O)[C@H]3O)C[C@]12C (some centres undefined) in this test?
Resp: N

Req: So what was the verdict on `O=C(COCC(=O)N1CCN(C(c2ccccc2)c2ccccc2)CC1)Nc1ccc(Cl)cc1C(=O)O` in this test?
Resp: Y
